Target: Prostaglandin D2 receptor 2 (Homo sapiens, UniProt Q9Y5Y4)
Sequence (Q9Y5Y4 whole entry): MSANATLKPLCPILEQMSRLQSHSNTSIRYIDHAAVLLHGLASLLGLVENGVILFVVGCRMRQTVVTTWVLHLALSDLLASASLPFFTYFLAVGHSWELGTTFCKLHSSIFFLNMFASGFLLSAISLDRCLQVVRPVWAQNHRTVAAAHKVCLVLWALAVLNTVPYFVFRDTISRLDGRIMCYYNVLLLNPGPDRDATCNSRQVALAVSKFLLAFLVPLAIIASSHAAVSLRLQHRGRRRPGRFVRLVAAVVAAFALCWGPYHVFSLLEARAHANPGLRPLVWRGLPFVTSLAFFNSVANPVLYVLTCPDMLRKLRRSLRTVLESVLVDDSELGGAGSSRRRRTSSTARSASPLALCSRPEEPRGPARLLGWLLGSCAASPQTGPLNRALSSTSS
Assay: Antagonist activity at human CRTH2 receptor expressed in HEK385-7 cells assessed as inhibition of PGD2-mediated beta-arrestin translocation preincubated 5 mins prior to PGD2 challenge measured after 5 mins by BRET assay
Assay type: functional, cell-based
Here the recorded IC50 is given for each entry.
readout_kind: IC50 (nM)

smiles	unit_of_measurement	relation_sign	reported
CC(c1ccccc1)(c1ccccc1)c1nc(-c2ccc(F)cc2)c(CC(=O)O)s1	nM	=	85
O=C(O)Cc1sc(N(c2ccccc2)c2ccccc2)nc1-c1cccc(F)c1	nM	=	79
COc1ccc(N(c2ccc(OC)cc2)c2ncc(CC(=O)O)c(-c3cccc(F)c3)n2)cc1	nM	>	100000
O=C(O)Cc1[nH]c(C(c2ccc(F)cc2)c2ccc(F)cc2)nc1-c1ccc(F)cc1	nM	>	100000
